Please go through the items and note down their pEC50.
target: human GPR40 (Homo sapiens, UniProt O14842); construct: expressed in transfected cells; host or cells: CHO cells stably transfected with GPR40 and Aequorin; test: Inositol phosphate accumulation assay; type: cell-based; settings: A9 cell line stably transfected with GPR40; 1 hour at 37° C.; read-out: IP3 EC50
Sequence (O14842 whole entry): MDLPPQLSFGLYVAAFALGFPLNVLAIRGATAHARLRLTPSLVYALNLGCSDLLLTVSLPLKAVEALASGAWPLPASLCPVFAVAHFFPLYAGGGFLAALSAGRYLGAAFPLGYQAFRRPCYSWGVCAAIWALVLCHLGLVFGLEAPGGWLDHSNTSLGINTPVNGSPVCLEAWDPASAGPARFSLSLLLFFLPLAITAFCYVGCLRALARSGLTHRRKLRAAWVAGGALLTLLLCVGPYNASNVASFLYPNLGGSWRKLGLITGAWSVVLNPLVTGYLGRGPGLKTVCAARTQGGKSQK
pEC50: −log10 of the molar value.

Look up pEC50 for this compound: COc1ccc(F)c(-c2cc(F)c(COc3ccc4c(c3)[C@]3(CC4)C[C@H]3C(=O)O)cc2[C@H]2CCCC2(C)C)c1 (single isomer, unassigned)
> 8.00

Looking for the measured pEC50 of COCCOc1ccc(COc2ccc3c(c2)[C@]2(CCC3)C[C@H]2C(=O)O)cc1[C@@H]1CCCC1(C)C (single isomer, unassigned) , can you help?
6.00 to 7.00

Look at this compound and give its reported pEC50. COc1cc(-c2cc(F)c(COc3ccc4c(c3)[C@]3(CC4)C[C@H]3C(=O)O)cc2[C@@H]2CCCC2(C)C)c(F)cn1 (single isomer, unassigned)
> 8.00

pEC50 lookup needed for COc1cc(-c2ccc(COc3cc4c(cn3)CC[C@]43C[C@H]3C(=O)O)cc2[C@@H](OC)C(C)(C)C)c(F)cn1 (single isomer, unassigned) , thanks.
> 8.00

So what does the record say about pEC50 for COc1ccc(F)c(-c2ccc(COc3ccc4c(c3)[C@]3(CCC4)C[C@H]3C(=O)O)cc2[C@H]2CCCC2(C)C)c1 (single isomer, unassigned) ?
> 8.00

---

Biological target: human GPR40 (Homo sapiens)
Construct: expressed in transfected cells; host or cells: CHO cells stably transfected with GPR40 and Aequorin
Test: Inositol phosphate accumulation assay
Type: cell-based
Conditions: A9 cell line stably transfected with GPR40; 1 hour at 37° C.; read-out: IP3 EC50
Method: An A9 cell line stably transfected with GPR40 (A9_GPR40) was used in IP accumulation assays. A9_GPR40 cells were plated in 96-well plates containing 20,000 cells/well in DMEM containing 10% FBS. After the cells attached to the well surface, the media was replaced with inositol free DMEM containing 10% dialyzed FBS and 1 μCi, mL ^3H-inositol and incubated for 16 hours. […] 50 μL of the extract was then added to 100 μL of SPA beads, incubated overnight, and measured on a TopCount the following day.
endpoint_name: EC50

API: value(readout= EC50, system= human GPR40 (Homo sapiens), query= COc1cc(-c2ccc(COc3ccc4c(c3)[C@]3(CCC4)C[C@H]3C(=O)O)cc2[C@H](OC)C(C)(C)C)c(Cl)cn1 (racemic) )
< 10 nM

Value wanted: EC50 (human GPR40 (Homo sapiens)) of entry `CCCCOc1cc(COc2ccc3c(c2)[C@]2(CC3)C[C@H]2C(=O)O)ccc1-c1cc(OC)ccc1F`
10 to 100 nM

Request: EC50, test system human GPR40 (Homo sapiens), entry COc1cc(-c2ccc(COc3ccc4c(c3)[C@]3(CCC4)C[C@H]3C(=O)O)cc2[C@@H](OC)C(C)(C)C)c(F)cn1 (single isomer, unassigned)
< 10 nM

Form field: EC50 recorded for COc1cc(-c2ccc(COc3ccc4c(c3)C3(CCC4)CCC3C(=O)O)cc2[C@@H]2CCCC2(C)C)c(F)cn1 (single isomer, unassigned) with human GPR40 (Homo sapiens) (enter value)
10 to 100 nM

// lookup EC50 | system=human GPR40 (Homo sapiens) | key= COc1ccc(F)c(-c2ccc(COc3ccc4c(c3)[C@]3(CCC4)C[C@H]3C(=O)O)cc2[C@@H](OC)C(C)(C)C)c1 (single isomer, unassigned)
< 10 nM

Provide value of EC50 for this record tested with human GPR40 (Homo sapiens): COc1ccc(F)c(-c2ccc(COc3ccc4c(c3)[C@]3(CCC4)CC[C@@H]3C(=O)O)cc2C2=CCCC2(C)C)c1 (single isomer, unassigned)
10 to 100 nM

Param readout= EC50; system= human GPR40 (Homo sapiens); entry= CC(C)COc1ccc(COc2ccc3c(c2)[C@]2(CCC3)C[C@H]2C(=O)O)cc1[C@@H]1CCCC1(C)C (single isomer, unassigned) ; returns value.
100 to 1000 nM

Quick check: EC50 on human GPR40 (Homo sapiens), item CCCOc1ccc(COc2ccc3c(c2)[C@]2(CCC3)C[C@H]2C(=O)O)cc1[C@@H]1CCCC1(C)C (single isomer, unassigned) ?
100 to 1000 nM

Notebook: pull reported EC50 for human GPR40 (Homo sapiens), entry `COc1ccc(F)c(-c2ccc(COc3ccc4c(c3)[C@]3(CC4)C[C@H]3C(=O)O)cc2C2=CCCC2)c1`
10 to 100 nM

Short answer please: EC50, human GPR40 (Homo sapiens), entry COc1ccc(F)c(-c2ccc(COc3ccc4c(c3)[C@]3(CCC4)CC[C@@H]3C(=O)O)cc2[C@@H]2CCCC2(C)C)c1 (single isomer, unassigned)
10 to 100 nM

Entry COc1ccc(F)c(-c2cc(F)c(COc3ccc4c(c3)[C@]3(CCC4)C[C@H]3C(=O)O)cc2[C@H]2CCCC2(C)C)c1 (single isomer, unassigned) , system human GPR40 (Homo sapiens): what EC50 was measured?
< 10 nM

Short answer please: EC50, human GPR40 (Homo sapiens), entry COc1ccc(F)c(-c2ccc(COc3ccc4c(c3F)[C@]3(CCC4)C[C@H]3C(=O)O)cc2[C@@H](OC)C(C)(C)C)c1 (single isomer, unassigned)
< 10 nM

What is its EC50 for human GPR40 (Homo sapiens)? Entry: COc1ccc(F)c(-c2cc(F)c(COc3ccc4c(c3F)[C@]3(CCC4)C[C@H]3C(=O)O)cc2[C@H]2CCCC2(C)C)c1 (single isomer, unassigned)
< 10 nM
